test system: 8305C (Thyroid Gland Carcinoma); test: Bliss excess, mean over the matrix (fraction); higher = more synergy
Bliss excess values by entry

NC1(C(=O)N[C@@H](CCO)c2ccc(Cl)cc2)CCN(c2ncnc3[nH]ccc23)CC1 [Capivasertib] + Cn1cnc2c(F)c(Nc3ccc(Br)cc3Cl)c(C(=O)NOCCO)cc21 [Selumetinib] (first compound max 10 µM, 7x7, partner max 10 µM)    -0.0212
COc1cccc(OCCCN)c1-c1cc(Nc2cnc(C#N)cn2)n[nH]1 [Prexasertib] + Cc1cc2ncnn2cc1Nc1ncc2c(n1)n(C1CCOCC1)c(=O)n2C [AZD7648] (first compound max 1 µM, 7x7, partner max 10 µM)    -0.0726
COc1cccc(OCCCN)c1-c1cc(Nc2cnc(C#N)cn2)n[nH]1 [Prexasertib] + C[C@@H]1COCCN1C2=NC(=NC(=C2)C3(CC3)[S@](=N)(=O)C)C4=C5C=CNC5=NC=C4 [AZD6738] (first compound max 1 µM, 7x7, partner max 10 µM)    -0.0226

*Q* Value wanted: Bliss excess (8305C (Thyroid Gland Carcinoma)) of entry Cc1cc2ncnn2cc1Nc1ncc2c(n1)n(C1CCOCC1)c(=O)n2C [AZD7648] + C[C@@H]1COCCN1C2=NC(=NC(=C2)C3(CC3)[S@](=N)(=O)C)C4=C5C=CNC5=NC=C4 [AZD6738] (first compound max 10 µM, 7x7, partner max 10 µM)
*A* 0.02

###

tested on: MDA-MB-468 (Breast Carcinoma); assay: combination Emax (second highest fraction inhibited in the dose matrix, 72 h); higher = more inhibition; extreme values may be limits of the assay
Quantity name: combination Emax
Give a plain numeric answer without units written out.

Worked examples, 3 molecules total:
COc1cccc(OCCCN)c1-c1cc(Nc2cnc(C#N)cn2)n[nH]1 [Prexasertib] + CN(C)CCCOc1ccc(-c2ccc3ncc4c(c3c2)n(C2CCOCC2)c(=O)n4C)cn1 [AZD0156] (first compound max 1 µM, 7x7, partner max 1 µM)    0.492
Cc1c2c(nn1C)CSCc1cc(n(C)n1)CSc1cc(c3ccccc3c1)OCCCc1c(C(=O)O)n(C)c3c-2c(Cl)ccc13 [AZD5991] + C[C@@H]1COCCN1C2=NC(=NC(=C2)C3(CC3)[S@](=N)(=O)C)C4=C5C=CNC5=NC=C4 [AZD6738] (first compound max 1 µM, 7x7, partner max 10 µM)    0.768
C=CCn1c(=O)c2cnc(Nc3ccc(N4CCN(C)CC4)cc3)nc2n1-c1cccc(C(C)(C)O)n1 [AZD1775] + C[C@@H]1COCCN1C2=NC(=NC(=C2)C3(CC3)[S@](=N)(=O)C)C4=C5C=CNC5=NC=C4 [AZD6738] (first compound max 1 µM, partner max 10 µM)    0.634

# ---- query molecule ----
*Q* GET /values?readout=combination Emax&item= Cc1c2c(nn1C)CSCc1cc(n(C)n1)CSc1cc(c3ccccc3c1)OCCCc1c(C(=O)O)n(C)c3c-2c(Cl)ccc13 [AZD5991] + Cn1cnc2c(F)c(Nc3ccc(Br)cc3Cl)c(C(=O)NOCCO)cc21 [Selumetinib] (first compound max 1 µM, 7x7, partner max 3 µM)
*A* 0.595

###

test system: SIMA (Neuroblastoma); test: Bliss excess, mean over the matrix (fraction); higher = more synergy
Bliss excess values by entry
Give a plain numeric answer without units written out.

Worked examples, 4 compounds total:
COc1cc2c(cc1OCCCCCOc1cc3c(cc1OC)C(=O)N1C=C(C)C[C@H]1C=N3)N=C[C@@H]1CC(C)=CN1C2=O [SG3199] + O=C(c1cc(Cc2n[nH]c(=O)c3ccccc23)ccc1F)N1CCN(C(=O)C2CC2)CC1 [Olaparib] (first compound max 0.001 µM, 7x7, partner max 10 µM)    -0.0214
COc1cccc2c1C(=O)c1c(O)c3c(c(O)c1C2=O)C[C@@](O)(C(=O)CO)C[C@@H]3O[C@H]1C[C@H](N)[C@H](O)[C@H](C)O1 [Doxorubicin] + Cc1cc2ncnn2cc1Nc1ncc2c(n1)n(C1CCOCC1)c(=O)n2C [AZD7648] (first compound max 1 µM, 7x7, partner max 10 µM)    0.0859
C=CCn1c(=O)c2cnc(Nc3ccc(N4CCN(C)CC4)cc3)nc2n1-c1cccc(C(C)(C)O)n1 [AZD1775] + C[C@@H]1COCCN1C2=NC(=NC(=C2)C3(CC3)[S@](=N)(=O)C)C4=C5C=CNC5=NC=C4 [AZD6738] (first compound max 1 µM, partner max 10 µM)    0.0547
CCN(CCO)CCCOc1ccc2c(Nc3cc(CC(=O)Nc4cccc(F)c4)[nH]n3)ncnc2c1 [AZD2811] + C[C@@H]1COCCN1C2=NC(=NC(=C2)C3(CC3)[S@](=N)(=O)C)C4=C5C=CNC5=NC=C4 [AZD6738] (first compound max 1 µM, 7x7, partner max 10 µM)    -0.0332

# ---- query compound ----
*Q* GET /values?readout=Bliss excess&item= C[C@@H]1COCCN1c1cc(C2([S@](C)(=N)=O)CC2)nc(-c2ccnc3[nH]ccc23)n1 [AZD6738] + O=C(c1cc(Cc2n[nH]c(=O)c3ccccc23)ccc1F)N1CCN(C(=O)C2CC2)CC1 [Olaparib] (first compound max 10 µM, 7x7, partner max 10 µM)
*A* -0.0498
